# Assay System: STING (Stimulator of Interferon Genes) (Homo sapiens, UniProt Q86WV6, G230A/H232R/R293Q/R71H)
# Construct: host or cells: THP-1-Lucia ISG cells (human monocytic line)
# Sequence (Q86WV6 whole entry R71H/G230A/H232R/R293Q): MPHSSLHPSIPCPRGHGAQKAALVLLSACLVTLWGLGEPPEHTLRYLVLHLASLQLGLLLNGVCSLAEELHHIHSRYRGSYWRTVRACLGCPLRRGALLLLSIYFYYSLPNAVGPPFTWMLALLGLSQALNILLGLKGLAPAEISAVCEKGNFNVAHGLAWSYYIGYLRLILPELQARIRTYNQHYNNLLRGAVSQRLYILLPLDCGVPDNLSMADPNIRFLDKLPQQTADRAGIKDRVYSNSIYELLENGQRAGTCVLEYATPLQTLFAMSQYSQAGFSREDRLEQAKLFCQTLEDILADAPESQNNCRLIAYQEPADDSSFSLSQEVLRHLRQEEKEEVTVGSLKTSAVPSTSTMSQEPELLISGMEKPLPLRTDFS
# Assay Protocol: ISG-LUC activation assay (ISRE-Luciferase assay in THP-1 Lucia ISG reporter cells)
# Format: cell-based
# Measurement Conditions: THP-1 Lucia ISG cells, 24 hours, luciferase reporter; read-out: ISG-LUC activation assay (EC50)
Binary call on EC50 with cut-off 2 µM: strictly below means t, and equality or higher means f.

Asked: Would you kindly verify if EC50 of Cc1ccc(NC(=O)c2ccc(-n3ccnc3)nn2)c(C(=O)O)c1 is strictly less than 2 µM?
Given back: f

Asked: Consider the compound O=C(Nc1ccc(F)c(F)c1C(=O)O)c1ccc(-n2ccnc2)nn1 . Is its EC50 strictly less than 2 µM?
Given back: f

Asked: Decide: EC50 of CCOC(=O)C1=C(NC(=O)c2ccc(-n3ccnc3)nn2)CCCCC1 strictly below 2 µM?
Given back: f

Asked: Hello, is EC50 of the following compound strictly smaller than 2 µM? O=c1oc(-c2ccc(-n3ccnc3)nn2)nc2ccc(S(F)(F)(F)(F)F)cc12
Given back: f

Asked: Quick check: does O=C(Nc1cc(F)c(F)cc1C(=O)NO)c1ccc(-n2ccnc2)nn1 have EC50 under 2 µM?
Given back: f

Asked: Regarding O=C(Nc1ccc(C(F)(F)F)cc1C(=O)O)c1ccc(-n2ccnc2)nn1 , kindly confirm whether its EC50 is beneath 2 µM.
Given back: f

Asked: I wonder whether Cn1ncc2cc(C(=O)O)c(NC(=O)c3ccc(-n4ccnc4)nn3)cc21 has EC50 below 2 µM. Can you tell?
Given back: f

Asked: Record COC(=O)c1cc(F)c(C2CC2)cc1NC(=O)c1ccc(-n2ccnc2)nn1 : is its EC50 strictly below 2 µM?
Given back: t

Asked: Consider COC(=O)C1=C(NC(=O)c2ccc(-n3ccnc3)nn2)CC(C)(C)CC1 . Does its EC50 lie strictly below 2 µM?
Given back: f

Asked: Is EC50 strictly under 2 µM for the entry O=C(Nc1cc(F)c(F)cc1C(=O)NCCO)c1ccc(-n2ccnc2)nn1 ?
Given back: f

Asked: Does the reported EC50 of the following compound sit strictly below 2 µM? COC(=O)c1ccncc1NC(=O)c1ccc(-n2ccnc2)nn1
Given back: f

Asked: Here's an entry: COC(=O)c1cc(F)c(F)cc1NC(=O)c1ccc(-n2ccnc2)nn1 . Is its EC50 below 2 µM?
Given back: t

Asked: Report whether reported EC50 is lower than 2 µM (strictly) for COC(=O)c1ccc(OC)cc1NC(=O)c1ccc(-n2ccnc2)nn1
Given back: t

Asked: Hi there! Is EC50 for O=C(Nc1cc(F)c(C(F)(F)F)cc1C(=O)O)c1ccc(-n2ccnc2)nn1 below 2 µM, do you know?
Given back: f

Asked: Threshold test, EC50 < 2 µM: O=C(Nc1cc(F)c(OC(F)(F)F)cc1C(=O)O)c1ccc(-n2ccnc2)nn1
Given back: f

Asked: Decide: EC50 of COc1cc(C(=O)O)c(NC(=O)c2ccc(-n3ccnc3)nn2)cc1F strictly below 2 µM?
Given back: f

Asked: Here's an entry: COC(=O)c1nc(OC)cnc1NC(=O)c1ccc(-n2ccnc2)nn1 . Is its EC50 below 2 µM?
Given back: f

Asked: Item O=C(Nc1ccc(F)cc1C(=O)O)c1ccc(-n2ccnc2)nn1 : EC50 beneath 2 µM, strictly?
Given back: f

Asked: Take the compound COC(=O)c1cc(C(F)(F)F)ccc1NC(=O)c1ccc(-n2ccnc2)nn1 and say whether its EC50 is less than 2 µM.
Given back: t

Asked: Bench note: check whether CCOC(=O)C1=C(NC(=O)c2ccc(-n3ccnc3)nn2)C2CCC1O2 (centres unmarked) shows EC50 below 2 µM
Given back: f

Asked: Would you kindly verify if EC50 of COc1ccc(C(=O)O)c(NC(=O)c2ccc(-n3ccnc3)nn2)c1 is strictly less than 2 µM?
Given back: t

Asked: I wonder whether CCc1ccc(NC(=O)c2ccc(-n3ccnc3)nn2)c(C(=O)OC(C)C)c1 has EC50 below 2 µM. Can you tell?
Given back: t

Asked: EC50 under 2 µM? Item: O=C(Nc1ccccc1C(O)(C(F)(F)F)C(F)(F)F)c1ccc(-n2ccnc2)nn1
Given back: t

Asked: Criterion: EC50 strictly below 2 µM. Is it met by O=C(Nc1cc(F)c(Br)nc1C(=O)O)c1ccc(-n2ccnc2)nn1 ?
Given back: f

Values were extracted from patent US11701364B2.
